Ref: ChEMBL document CHEMBL1944551

Listing of entries alongside the reported logP.
assay procedure: physchem
condition set: octanol/buffer
Hey, just send me the number, nothing else.

{"molecule": "O=C(CC(F)(F)F)NCCc1ccc(Cl)c(CN(C(=O)[C@H]2CNCC(=O)N2c2ccc(COC(=O)c3ccccc3)cc2)C2CC2)c1", "logP": 5}

INPUT: Sample O=C(NCc1ccc(Cl)c(CN(C(=O)[C@H]2CNCC(=O)N2c2ccc(CCCOc3cccc(Cl)c3)cc2)C2CC2)c1)C1CC1 — what was its logP?
OUTPUT: 5.72

INPUT: Reported logP, molecule CNC(=O)Cc1ccc(Cl)c(CN(C(=O)[C@H]2CNCC(=O)N2c2ccc(CCCOc3cccc(Cl)c3)cc2)C2CC2)c1 : ____
OUTPUT: 5.33

INPUT: Which logP is reported for this molecule? CCNCc1ccc(Cl)c(CN(C(=O)[C@H]2CNCC(=O)N2c2ccc(CCCOc3c(F)ccc(F)c3F)cc2)C2CC2)c1
OUTPUT: 5.89
